Data origin: patent US20260166158A1

# System: NCI-H460 tumor-bearing mice (lung cancer)
# TEST_DETAILS: Biodistribution: lutetium accumulation in tumor, plasma and healthy tissues by ICP-MS
# Format: in vivo
# MEASUREMENT_CONTEXT: 24 h
Parameter T/K (Tumor/Kidney ratio): see the listing below.
Kindly provide the number alone.

The cases that follow already have their T/K (Tumor/Kidney ratio) on record.
MOLECULE: CCNC(=O)c1nnc(-c2cc(C(C)C)c(O)cc2O)n1-c1ccc(C2CCN(C(=O)CCOCCOCCOCCOCCOCCOCCOCCOCCOCCOCCOCCOCCNC(=O)CN3CCN4CCN5CCN(CC3)CC(=O)[O][Lu]([O]C(=O)C4)[O]C(=O)C5)CC2)cc1
TARGET_OR_SYSTEM: NCI-H460 tumor-bearing mice (lung cancer)
EXPERIMENTAL_ENDPOINT: T/K (Tumor/Kidney ratio)
TEST_VALUE: 2.05
--
MOLECULE: CCNC(=O)c1nnc(-c2cc(C(C)C)c(O)cc2O)n1-c1ccc(CN2CCN(C(=O)C[C@H](NC(=O)CCNC(=O)[C@@H](CO)NC(=O)[C@@H](CO)NC(=O)[C@@H](CO)NC(=O)CC[C@H](C(=O)O)N3CCN4CCN5CCN(CC3)CC(=O)[O][Lu]([O]C(=O)C5)[O]C(=O)C4)C(=O)N[C@H](C)C(=O)N3CCN(Cc4ccc(-n5c(C(=O)NCC)nnc5-c5cc(C(C)C)c(O)cc5O)cc4)CC3)CC2)cc1
TARGET_OR_SYSTEM: NCI-H460 tumor-bearing mice (lung cancer)
EXPERIMENTAL_ENDPOINT: T/K (Tumor/Kidney ratio)
TEST_VALUE: 3.08
--
MOLECULE: CC(C)c1cc(-c2nnc(O)n2-c2ccc(OC3CCN(C(=O)CCOCCOCCOCCOCCOCCOCCOCCOCCOCCOCCOCCOCCNC(=O)CN4CCN5CCN6CCN(CC4)CC(=O)[O][Lu]([O]C(=O)C5)[O]C(=O)C6)CC3)cc2)c(O)cc1O
TARGET_OR_SYSTEM: NCI-H460 tumor-bearing mice (lung cancer)
EXPERIMENTAL_ENDPOINT: T/K (Tumor/Kidney ratio)
TEST_VALUE: 2.23

Next molecule, please.
Provide measured T/K (Tumor/Kidney ratio) value, entry: `CCNC(=O)c1nnc(-c2cc(C(C)C)c(O)cc2O)n1-c1ccc(CC2CCN(C(=O)CCOCCOCCOCCOCCNC(=O)CN3CCN4CCN5CCN(CC3)CC(=O)[O][Lu]([O]C(=O)C4)[O]C(=O)C5)CC2)cc1`
5.00
